From: patent US20260132208A1

- tgt: T1, pm3 (Y17 sulfated; Y15 and Y16 not sulfated)
- T1 construct: also called sulfated CCR8 N-terminal peptide pm3
- protocol-summary: ELISA on coated peptide [cont.]

binder	binding result
anti-CCR8 mAb 1-23 (antibody, human IgG1, kappa, V domains shown, Humanized mAb, human IgG1 / kappa) VH: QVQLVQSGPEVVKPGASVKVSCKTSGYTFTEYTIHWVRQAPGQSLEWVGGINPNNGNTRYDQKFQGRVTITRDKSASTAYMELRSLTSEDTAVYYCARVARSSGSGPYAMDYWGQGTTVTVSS VL: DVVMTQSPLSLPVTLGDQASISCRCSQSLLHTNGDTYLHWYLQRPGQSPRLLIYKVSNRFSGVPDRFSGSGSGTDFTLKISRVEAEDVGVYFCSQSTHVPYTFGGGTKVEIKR	binds
anti-CCR8 mAb 1-11 (antibody, V domains shown, Murine hybridoma mAb) VH: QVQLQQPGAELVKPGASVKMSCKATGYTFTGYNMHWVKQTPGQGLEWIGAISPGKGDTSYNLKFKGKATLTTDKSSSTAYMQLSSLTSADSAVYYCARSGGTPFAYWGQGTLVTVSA VL: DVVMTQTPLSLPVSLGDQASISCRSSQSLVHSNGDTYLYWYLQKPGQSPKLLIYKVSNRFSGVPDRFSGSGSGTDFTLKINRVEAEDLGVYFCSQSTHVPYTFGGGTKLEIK	binds
anti-CCR8 mAb 1-12 (antibody, V domains shown, Murine hybridoma mAb) VH: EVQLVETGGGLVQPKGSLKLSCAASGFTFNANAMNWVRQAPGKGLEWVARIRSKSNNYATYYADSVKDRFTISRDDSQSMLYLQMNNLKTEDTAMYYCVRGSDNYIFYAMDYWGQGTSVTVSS VL: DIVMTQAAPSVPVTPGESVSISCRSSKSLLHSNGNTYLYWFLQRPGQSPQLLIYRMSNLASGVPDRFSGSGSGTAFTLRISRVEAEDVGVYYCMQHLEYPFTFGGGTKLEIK	binds
